This collection of values is drawn from ChEMBL document CHEMBL3098058.

measurement_target: Neurotensin receptor type 1 (Homo sapiens)
Sequence (P30989 whole entry): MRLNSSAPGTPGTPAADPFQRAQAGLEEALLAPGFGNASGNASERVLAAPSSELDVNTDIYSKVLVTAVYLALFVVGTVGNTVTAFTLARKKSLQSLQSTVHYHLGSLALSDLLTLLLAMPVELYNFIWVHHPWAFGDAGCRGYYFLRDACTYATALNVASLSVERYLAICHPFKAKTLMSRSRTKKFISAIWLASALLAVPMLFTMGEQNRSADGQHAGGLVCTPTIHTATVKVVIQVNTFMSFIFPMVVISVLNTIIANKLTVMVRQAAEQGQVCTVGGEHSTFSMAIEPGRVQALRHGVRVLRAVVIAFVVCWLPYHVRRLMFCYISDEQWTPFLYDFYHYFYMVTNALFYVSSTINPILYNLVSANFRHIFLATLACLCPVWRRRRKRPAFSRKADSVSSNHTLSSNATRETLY
experimental_protocol: Agonist activity at NTR1 in human U2OS cells after 1 hr by beta-arrestin GFP reporter gene assay
Type: cell-based
pEC50: −log10 of the molar value.
Note to self: values exactly at 5 are Met. So pEC50 at or above 5 is Met, below is Not met.

Below are worked cases with known answers.
* COc1cccc(OC)c1-c1nc(C(=O)N[C@@H](CC(C)C)C(=O)O)cn1-c1ccc(C)cc1 | Not met
* COc1cccc(OC)c1-c1cc(C(=O)NC2(C(=O)O)C3CC4CC(C3)CC2C4)nn1-c1ccc(C(=O)N(C)CCCN(C)C)cc1C(C)C (stereo unspecified) | Not met
* COc1ccccc1-c1nc(C(=O)N[C@@H](CC(C)C)C(=O)O)cn1-c1ccnc2ccccc12 | Not met
* CC(C)C[C@H](NC(=O)c1cn(-c2ccnc3cc(Cl)ccc23)c(-c2ccccc2)n1)C(=O)O | Not met
* COc1cccc(OC)c1-c1cc(C(=O)NC2(C(=O)O)C3CC4CC(C3)CC2C4)nn1-c1ccnc2cc(Cl)ccc12 (stereo unspecified) | Not met
* COc1cccc(OC)c1-c1nc(C(=O)N[C@@H](CC(C)C)C(=O)O)cn1-c1ccncc1 | Not met
* COc1cccc(OC)c1-c1nc(C(=O)N[C@@H](CC(C)C)C(=O)O)cn1-c1cccc2ccccc12 | Met
* COc1cccc(OC)c1-c1nc(C(=O)N[C@@H](CC(C)C)C(=O)O)cn1-c1ccnc2ccccc12 | Met
* CC(C)C[C@H](NC(=O)c1cn(-c2ccnc3cc(Cl)ccc23)c(-c2c(Cl)cccc2Cl)n1)C(=O)O | Met
* COc1ccccc1-c1cc(C(=O)N[C@H](CC(C)C)C(=O)O)nn1-c1ccnc2cc(Cl)ccc12 | Met

Exercise: Would you say COc1ccccc1-c1nc(C(=O)N[C@@H](CC(C)C)C(=O)O)cn1-c1ccnc2cc(Cl)ccc12 shows pEC50 at minimum 5?
Solution: Not met

Exercise: Now consider COc1cccc(OC)c1-c1nc(C(=O)NC2(C(=O)O)C3CC4CC(C3)CC2C4)cn1-c1ccnc2cc(Cl)ccc12 (stereo unspecified) .
Solution: Not met

Exercise: Now consider COc1cccc(OC)c1-c1nc(C(=O)N[C@@H](CC(C)C)C(=O)O)cn1-c1ccnc2cc(Cl)ccc12 .
Solution: Met

Exercise: Now consider COc1ccc(-c2nc(C(=O)N[C@@H](CC(C)C)C(=O)O)cn2-c2ccnc3cc(Cl)ccc23)c(OC)c1 .
Solution: Not met

* * *

experimental_protocol: Permeability of the compound at donor pH 6.2 and acceptor pH 7.4 by PAMPA
Assay type: ADME
Quick reference for permeability among some compounds

- COc1cccc(OC)c1-c1nc(C(=O)N[C@@H](CC(C)C)C(=O)O)cn1-c1ccnc2cc(Cl)ccc12: 17 ×10⁻⁶ cm/s
- COc1cccc(OC)c1-c1cc(C(=O)N[C@@H](CC(C)C)C(=O)O)nn1-c1ccnc2cc(Cl)ccc12: 725 ×10⁻⁶ cm/s

Lab note: next compound to report on.
Exercise: Given COc1cccc(OC)c1-c1nc(C(=O)N[C@@H](CC(C)C)C(=O)O)cn1-c1cccc2ccccc12 , state its recorded permeability.
Solution: 145 ×10⁻⁶ cm/s

* * *

measurement_target: Neurotensin receptor type 1 (Homo sapiens)
experimental_protocol: Agonist activity at NTR1 in human U2OS cells after 1 hr by beta-arrestin GFP reporter gene assay relative to NT peptide
Type: cell-based
Quick reference for Emax among some compounds
Output spec: scalar in %, unitless text.

* COc1cccc(OC)c1-c1nc(C(=O)N[C@@H](CC(C)C)C(=O)O)cn1-c1ccnc2ccccc12 | 59

Exercise: Given COc1ccccc1-c1cc(C(=O)N[C@H](CC(C)C)C(=O)O)nn1-c1ccnc2cc(Cl)ccc12 , state its recorded Emax.
Solution: 98

Exercise: Now consider COc1cccc(OC)c1-c1cc(C(=O)NC2(C(=O)O)C3CC4CC(C3)CC2C4)nn1-c1ccnc2cc(Cl)ccc12 (stereo not drawn) [REMINERTANT] .
Solution: 100

* * *

measurement_target: Sodium-dependent dopamine transporter (Homo sapiens)
Sequence (Q01959 whole entry): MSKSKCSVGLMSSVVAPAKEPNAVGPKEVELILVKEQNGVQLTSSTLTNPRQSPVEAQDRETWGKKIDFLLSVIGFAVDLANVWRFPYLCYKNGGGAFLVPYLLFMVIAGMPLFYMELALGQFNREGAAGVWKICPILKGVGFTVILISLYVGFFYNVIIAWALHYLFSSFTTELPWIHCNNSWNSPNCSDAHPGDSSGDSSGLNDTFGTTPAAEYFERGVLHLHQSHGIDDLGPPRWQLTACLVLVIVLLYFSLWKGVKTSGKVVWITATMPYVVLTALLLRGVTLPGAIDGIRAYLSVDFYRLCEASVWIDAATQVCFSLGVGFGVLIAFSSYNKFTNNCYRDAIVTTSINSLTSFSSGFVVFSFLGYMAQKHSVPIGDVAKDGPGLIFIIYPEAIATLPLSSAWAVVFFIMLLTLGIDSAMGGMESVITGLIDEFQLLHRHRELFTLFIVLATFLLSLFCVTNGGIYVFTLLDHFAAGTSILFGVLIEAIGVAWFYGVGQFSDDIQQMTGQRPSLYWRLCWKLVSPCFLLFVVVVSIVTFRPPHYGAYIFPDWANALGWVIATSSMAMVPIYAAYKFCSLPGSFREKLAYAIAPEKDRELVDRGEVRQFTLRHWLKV
pKi: −log10 of the molar value.
Quick reference for pKi among some compounds

- COc1cccc(OC)c1-c1cc(C(=O)N[C@@H](CC(C)C)C(=O)O)nn1-c1ccnc2cc(Cl)ccc12: < 5.00

Lab note: next compound to report on.
Exercise: Given COc1cccc(OC)c1-c1nc(C(=O)N[C@@H](CC(C)C)C(=O)O)cn1-c1ccnc2cc(Cl)ccc12 , state its recorded pKi.
Solution: < 5.00

* * *

Quick reference for Emax among some molecules
measurement_target: UniProt P30989
experimental_protocol: Agonist activity at NTR1 in human U2OS cells after 1 hr by beta-arrestin GFP reporter gene assay relative to NT peptide
Assay type: cell-based
Output spec: scalar in %, unitless text.

Answered examples (4):
* CC(C)C[C@H](NC(=O)c1cn(-c2ccnc3cc(Cl)ccc23)c(-c2c(Cl)cccc2Cl)n1)C(=O)O | 80
* COc1cccc(OC)c1-c1cc(C(=O)N[C@@H](CC(C)C)C(=O)O)nn1-c1ccnc2cc(Cl)ccc12 | 100
* COc1cccc(OC)c1-c1nc(C(=O)N[C@H](CC(C)C)C(=O)O)cn1-c1ccnc2cc(Cl)ccc12 | 50
* COc1ccccc1-c1nc(C(=O)N[C@@H](CC(C)C)C(=O)O)cn1-c1ccnc2cc(Cl)ccc12 | 100

Exercise: Given CC(C)C[C@H](NC(=O)c1cn(-c2ccnc3cc(Cl)ccc23)c(-c2ccccc2)n1)C(=O)O , state its recorded Emax.
Solution: 100
